- target_under_test: MEK1 (Homo sapiens)
- Sequence (Q02750 whole entry): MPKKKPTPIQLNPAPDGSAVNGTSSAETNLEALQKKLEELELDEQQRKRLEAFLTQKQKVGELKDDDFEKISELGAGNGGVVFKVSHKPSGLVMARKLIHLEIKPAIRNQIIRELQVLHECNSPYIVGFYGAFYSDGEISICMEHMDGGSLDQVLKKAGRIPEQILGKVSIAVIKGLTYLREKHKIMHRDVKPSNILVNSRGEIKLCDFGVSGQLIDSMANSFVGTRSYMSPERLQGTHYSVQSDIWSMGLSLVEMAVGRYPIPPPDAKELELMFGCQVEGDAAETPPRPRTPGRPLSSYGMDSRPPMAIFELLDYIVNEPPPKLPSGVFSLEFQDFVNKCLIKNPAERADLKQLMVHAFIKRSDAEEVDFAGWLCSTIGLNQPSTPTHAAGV
pIC50: −log10 of the molar value.
assay_metric: pIC50

Prompt: Look up pIC50: `CN1CCC(C(=O)Nc2cccc(Oc3cc(F)cc(Nc4ccc(I)cc4F)c3C(N)=O)c2)CC1`
Completion: > 7.00
